Reference for the values: the Human Domainome abundance scans (Beltran et al. 2025)

B1: POU domain, class 2, transcription factor 3, residues 186 to 260; numbered along this chain, Q9UKI9 (parent)
chain: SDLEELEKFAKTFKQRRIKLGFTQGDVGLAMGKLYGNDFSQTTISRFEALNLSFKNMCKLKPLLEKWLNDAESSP

# Variants of: B1
# Assay Protocol: abundance fitness (aPCA) (normalised: wild type 0, dead -1); higher = more abundant; growth selection in yeast, the domain comes from the species named
# Reported Conditions: Homo sapiens
Parameter: abundance fitness

Here are 10 variants together with their reported answers.
{"columns": ["Ordered Residues", "abundance fitness"],
 "data": [
  ["SDLEELEKFAKTFKQRRIKLGFTQGDVGLAMGKLYGNDFSQTTISEFEALNLSFKNMCKLKPLLEKWLNDAESSP", 0.035],
  ["SDLEELEKFAKTFKQRRIKLGFTQGDVGLAMGKLYGNDFSQTTISRFEALNLSFKNMCKLKPLLEKWLNDPESSP", -0.067],
  ["SDLEELEKFAKTFKQRRIKLGFTCGDVGLAMGKLYGNDFSQTTISRFEALNLSFKNMCKLKPLLEKWLNDAESSP", -0.155],
  ["SDLEELEKFAKTFKQRRIKLGFAQGDVGLAMGKLYGNDFSQTTISRFEALNLSFKNMCKLKPLLEKWLNDAESSP", -0.157],
  ["SDLEELEKFAKTFKQRRIKLGFTQGDVGCAMGKLYGNDFSQTTISRFEALNLSFKNMCKLKPLLEKWLNDAESSP", 0.026],
  ["SDLEELEKFAKTFKQRRIKLGFTQGDVGLAMGKLYGNDFSQTTISRFEQLNLSFKNMCKLKPLLEKWLNDAESSP", 0.133],
  ["SDLEELEKFAKTFKQRRIKLGFTQGDVGLAMGKLYGNDFSQTTISRFEALNLSFKNMCKLKPLLEKWFNDAESSP", -0.312],
  ["SDLEELEKFAKTFKQRRIKLGFTQGDVGLAMGKLYGNDFSQTTIPRFEALNLSFKNMCKLKPLLEKWLNDAESSP", -0.04],
  ["SDLEELEKFAKTFKQRRIKLGFTQGDVGLAMGKLYGNDFSQTTISRFEALNLSFKNMCKLMPLLEKWLNDAESSP", -0.133],
  ["SDLEELEKFAKTFKQRRIKLGFTQGDVGLAMGKLYGNDFSQTTISRFEALSLSFKNMCKLKPLLEKWLNDAESSP", 0.043]
]}

Items follow; give abundance fitness for each.
1. SDLEELEKFAKTFKQRRIKLGFTQGDVGLAMGKLYGNDFSQTTISRFEALNLSFKNMCKLKPLLEKDLNDAESSP
2. SDLEELEKFAKTFKQRRIKLGFTQGDVGLAMGKLYGNDFSQTTISRFEAMNLSFKNMCKLKPLLEKWLNDAESSP
3. SDLEELEKFAKTFKQRRIKLGFTQGDVGLAMGKLYGNDFSYTTISRFEALNLSFKNMCKLKPLLEKWLNDAESSP
4. SDLEELEKFAKTFKQRRIKLGFTQGDVQLAMGKLYGNDFSQTTISRFEALNLSFKNMCKLKPLLEKWLNDAESSP
5. SDLEEFEKFAKTFKQRRIKLGFTQGDVGLAMGKLYGNDFSQTTISRFEALNLSFKNMCKLKPLLEKWLNDAESSP
6. SDLEELEKFAKTFKQRRIKLGFTQGDVGLAMGKLYGNDFSQTTISRFEAENLSFKNMCKLKPLLEKWLNDAESSP
7. SDLEELEKFAKTFKQRRIKLGFTQGDVGLAMGKLYGNDFSQTTISRFEALNLSFKNMCDLKPLLEKWLNDAESSP
8. SDLEELEKFAKTFKQRRIKLGFTQGDVGLAMGKLYGNDFSQTTISRFEACNLSFKNMCKLKPLLEKWLNDAESSP

*A*
-0.706
-0.02
-0.07
-0.59
-0.229
-0.165
-0.039
-0.078
